The measurements presented in this section are drawn from the supplement of paper PMC7877785.

experiment: self-splicing fitness, log relative to wild type (ln ratio); higher = more splicing; Tetrahymena group I intron in knt gene, E. coli kanamycin selection, DiMSum; sequences stand for … in CUCUCU…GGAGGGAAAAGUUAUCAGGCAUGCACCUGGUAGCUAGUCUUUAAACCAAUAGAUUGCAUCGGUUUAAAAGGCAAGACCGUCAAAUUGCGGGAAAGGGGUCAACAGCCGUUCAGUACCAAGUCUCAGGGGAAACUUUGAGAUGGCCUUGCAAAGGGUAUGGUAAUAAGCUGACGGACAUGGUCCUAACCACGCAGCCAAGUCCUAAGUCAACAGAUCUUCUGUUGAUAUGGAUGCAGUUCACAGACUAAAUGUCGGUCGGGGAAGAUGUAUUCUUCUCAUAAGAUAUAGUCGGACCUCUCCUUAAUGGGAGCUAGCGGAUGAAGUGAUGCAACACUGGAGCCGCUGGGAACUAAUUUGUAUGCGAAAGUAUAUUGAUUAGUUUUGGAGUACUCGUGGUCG; details: 37 °C;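 further: selection with 25 µg/mL kanamycin versus none on LB agar overnight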
Items are presented alongside their recorded self-splicing fitness (ln).
Form field (numeric): enter value without unit.

>>> endpoint_result("CGUAAGCAAUAUUACGACUG")
0.421
>>> endpoint_result("AACUAGCAAUAUUACGCAUU")
-1.09
>>> endpoint_result("AUACAGCAAUAUUACGGGCG")
-1.18
>>> endpoint_result("CCCAAGCAAUAUUACGCGAU")
-2.5
>>> endpoint_result("GCUAAGCAAUAUUACGAUCA")
-0.823
>>> endpoint_result("UCGCAGCAAUAUUACGUCAG")
0.604
>>> endpoint_result("UACCAGCAAUAUUACGGCCG")
-0.366
>>> endpoint_result("UUAGAGCAAUAUUACGACCU")
-1.49
>>> endpoint_result("GACCAGCAAUAUUACGACGC")
-0.35
>>> endpoint_result("GAGAAGCAAUAUUACGUGCC")
-0.064

# input Can you share its self-splicing fitness (ln)? I mean this sequence: `AUUGAGCAAUAUUACGUCAG`
# output -2.3

# input Name the recorded self-splicing fitness (ln) for `CUGAAGCAAUAUUACGAUUC` .
# output -2.5

# input Request the reported self-splicing fitness (ln) associated with `CUUCAGCAAUAUUACGUCUG`
# output -1.48

---

Let's look at some sequences and their measured self-splicing fitness (ln).
experiment: self-splicing fitness, log relative to wild type (ln ratio); higher = more splicing; Tetrahymena group I intron in knt gene, E. coli kanamycin selection, DiMSum; sequences stand for … in CUCUCU…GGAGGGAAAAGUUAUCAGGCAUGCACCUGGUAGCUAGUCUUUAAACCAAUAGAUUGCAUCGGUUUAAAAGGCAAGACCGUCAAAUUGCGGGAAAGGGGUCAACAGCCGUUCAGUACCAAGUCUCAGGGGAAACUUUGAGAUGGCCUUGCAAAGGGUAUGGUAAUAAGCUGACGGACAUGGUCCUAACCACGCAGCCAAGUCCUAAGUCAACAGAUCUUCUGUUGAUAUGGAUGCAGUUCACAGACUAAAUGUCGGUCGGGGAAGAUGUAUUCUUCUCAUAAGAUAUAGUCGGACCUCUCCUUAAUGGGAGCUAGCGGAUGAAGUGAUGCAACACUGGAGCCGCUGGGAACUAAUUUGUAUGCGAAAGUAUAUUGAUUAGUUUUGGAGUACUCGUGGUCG; details: 37 °C
# respond with the number and nothing more

>>> endpoint_result("UAAUAGCAAUAUUACGCGUG")
-0.125
>>> endpoint_result("CCGAAGCAAUAUUACGUGAC")
-1.4
>>> endpoint_result("ACCUAGCAAUAUUACGGACC")
0.368
>>> endpoint_result("CGCCAGCAAUAUUACGCCAG")
-0.172
>>> endpoint_result("CAUGAGCAAUAUUACGGCAC")
-1.42
>>> endpoint_result("UACUAGCAAUAUUACGGCUU")
0.146
>>> endpoint_result("UUGAAGCAAUAUUACGAGUG")
-0.22
>>> endpoint_result("GCACAGCAAUAUUACGUUUU")
-0.268

// moving on: another record for self-splicing fitness (ln)
# input Given the entry `UCCCAGCAAUAUUACGAACG` , report its measured self-splicing fitness (ln).
# output -2.39
